pIC50 values for the sequences below.
study-system: DPB1*04:02
protocol: Peptide binding to HLA-DP allele, competition assay
Set-up: species or system human
Source text: Peptide binding to MHC-II requires anchor residues in certain positions and thus can be predicted using computer algorithms. Affinity can be measured experimentally using a competition assay (1). Both are excellent screening tools. However, affinity must be measured separately for each MHC-II allele. Humans express molecules encoded in four different MHC-II loci, denominated HLA-DRB1, DRB3/4/5, DP and DQ. […]
No end group written: not given here.
Interpret pIC50 as the negative base-10 log of the concentration measured in mol/L.

// sample TLTAFGFASADLLEI [Peptide 3563.0005] , its pIC50 was 8.28

# ---- query sequence ----
// sample LSQLTYMIQFDQYI [Peptide 3563.0012] , its pIC50 was 6.21

====

IC50 values for the compounds below.
study-system: DQB1*05:01
protocol: Peptide binding to HLA-DQ allele, competition assay
Only the number, expressed in nM, is required.

// sample CC[C@H](C)[C@H](NC(=O)[C@H](CC(C)C)NC(=O)[C@@H](N)Cc1ccccc1)C(=O)N[C@@H](Cc1ccc(O)cc1)C(=O)N[C@H](C(=O)N[C@H](C(=O)N[C@@H](CCC(=O)O)C(=O)N[C@@H](CC(C)C)C(=O)N[C@@H](CC(C)C)C(=O)N[C@@H](CCCCN)C(=O)N[C@@H](CCCCN)C(=O)N[C@@H](CC(C)C)C(=O)N[C@@H](CCC(N)=O)C(=O)N[C@@H](CO)C(=O)N[C@H](C(=O)O)[C@@H](C)O)[C@@H](C)O)[C@@H](C)CC [Peptide 3563.0030] , its IC50 was 4760

====

study-system: DRB4*01:01 (Homo sapiens, UniProt P01903+P13762, G164S)
protocol: Peptide binding to HLA-DR allele, competition assay
test-readout: pIC50
Interpret pIC50 as the negative base-10 log of the concentration measured in mol/L.

Known results for molecules:
// sample CC[C@H](C)[C@H](NC(=O)[C@H](CC(N)=O)NC(=O)[C@H](CCCCN)NC(=O)[C@H](CC(C)C)NC(=O)[C@H](Cc1ccccc1)NC(=O)[C@H](CCCNC(=N)N)NC(=O)[C@H](CC(C)C)NC(=O)[C@H](Cc1c[nH]cn1)NC(=O)CNC(=O)[C@@H](N)CCC(=O)O)C(=O)N[C@H](C(=O)N[C@@H](CC(C)C)C(=O)N1CCC[C@H]1C(=O)N[C@H](C(=O)N[C@@H](Cc1ccc(O)cc1)C(=O)O)C(C)C)[C@@H](C)CC [Peptide 3563.0021] , its pIC50 was 8.48

// sample CC(C)C[C@H](NC(=O)[C@H](CCC(N)=O)NC(=O)[C@H](C)NC(=O)[C@H](CC(N)=O)NC(=O)[C@H](C)NC(=O)[C@H](CCC(N)=O)NC(=O)[C@H](Cc1ccccc1)NC(=O)[C@H](CC(=O)O)NC(=O)[C@H](Cc1ccccc1)NC(=O)[C@H](CC(N)=O)NC(=O)[C@H](CC(C)C)NC(=O)[C@@H](NC(=O)[C@H](CCC(=O)O)NC(=O)[C@@H](N)CC(C)C)C(C)C)C(=O)N[C@@H](CO)C(=O)O [Peptide 3563.0017] , its pIC50 was 7.03

// sample CC[C@H](C)[C@H](NC(=O)[C@@H](NC(=O)[C@@H](N)CC(C)C)[C@@H](C)CC)C(=O)N[C@@H](CC(N)=O)C(=O)N[C@@H](Cc1c[nH]c2ccccc12)C(=O)N[C@@H](CC(C)C)C(=O)N[C@@H](CCC(N)=O)C(=O)N[C@@H](CCC(=O)O)C(=O)N[C@@H](C)C(=O)N[C@@H](CC(C)C)C(=O)N[C@@H](CO)C(=O)N[C@@H](CO)C(=O)N[C@@H](C)C(=O)N[C@@H](CO)C(=O)N[C@@H](CC(C)C)C(=O)O [Peptide 3563.0015] , its pIC50 was 7.92

# ---- query molecule ----
// sample CSCC[C@H](NC(=O)[C@H](CC(C)C)NC(=O)[C@H](Cc1ccc(O)cc1)NC(=O)[C@H](C)NC(=O)[C@H](C)NC(=O)[C@H](CC(C)C)NC(=O)[C@H](CCCNC(=N)N)NC(=O)[C@H](CCCCN)NC(=O)[C@@H](N)CC(=O)O)C(=O)N[C@@H](CC(C)C)C(=O)N[C@@H](CCSC)C(=O)N[C@@H](CCCNC(=N)N)C(=O)N[C@@H](CO)C(=O)N1CCC[C@H]1C(=O)N[C@@H](CO)C(=O)O [Peptide 3563.0004] , its pIC50 was 7.92
